Measured values drawn from patent US12594292B2 for this set.

test system: SARS-CoV-2; assay: SARS-CoV-2 infection assay in TMPRSS2-Vero cells, nucleocapsid immunofluorescence (Example 6); assay type: cell-based; details: MOI 0.01, 32 hours
Friendly reminder: EC90 below 600 nM is satisfied, at or above is not satisfied.

Compound: CCCCCCCCCCCCCCCCOC[C@H](COP(=O)(O)OC[C@H]1O[C@@](C#N)(c2ccc3c(N)ncnn23)[C@H](O)[C@@H]1O)OCc1ccccc1 [Compound 15b]
Label Class: not satisfied

Compound: CCCCCCCCCCCCCCOC[C@H](COP(=O)(O)OC[C@H]1O[C@@](C#N)(c2ccc3c(N)ncnn23)[C@H](O)[C@@H]1O)OCc1ccccc1 [Compound 15a]
Label Class: not satisfied

Compound: CCCCCCCC/C=C\CCCCCCCCOC[C@H](COP(=O)(O)OC[C@H]1O[C@@](C#N)(c2ccc3c(N)ncnn23)[C@H](O)[C@@H]1O)OCc1ccccc1 [Compound 15l]
Label Class: satisfied

Compound: CCCCCCCCCCCCCCCCCCOC[C@H](COP(=O)(O)OC[C@H]1O[C@@](C#N)(c2ccc3c(N)ncnn23)[C@H](O)[C@@H]1O)OCc1ccc(OC)c(F)c1 [Compound 15j]
Label Class: satisfied

Compound: CCCCCCCCCCCCCCCCCCOCC(COP(=O)(O)OC[C@H]1O[C@@](C#N)(c2ccc3c(N)ncnn23)[C@H](O)[C@@H]1O)OCc1ccccc1 (mixture of isomers) [Compound 15e]
Label Class: not satisfied
